# System: 648629-189-R-J1-PDC spheroids with HUVEC/MSC, viability
# METHOD: Anticancer human tumor 648629-189-R-J1-PDC patient-derived bladder carcinoma cell line growth inhibition [PI3K]
# DETAILS: second compound 0.00316 µM; first compound 1 µM; stronger effect = lower value
// viability, T/C lookup, one value per entry

[
  {
    "COMPOUND": "CC(Cn1ccc(-c2ccc(C#N)c(Cl)c2)n1)NC(=O)c1cc(C(C)O)[nH]n1 (stereo not given) + COc1c(OCCCN2CCOCC2)ccc2c3n(c(=NC(=O)c4cnc(N)nc4)nc12)CCN3",
    "viability, T/C": "96.4%"
  },
  {
    "COMPOUND": "C#Cc1c(F)ccc2cc(O)cc(-c3ncc4c(N5CC6CCC(C5)N6)nc(OCC56CCCN5CC(F)C6)nc4c3F)c12 (stereo not given) + CC(Nc1ccc2c(c1)OCCn1cc(N3C(=O)OCC3C(F)F)nc1-2)C(N)=O",
    "viability, T/C": "96.6%"
  },
  {
    "COMPOUND": "CNC(=O)c1ccc(N2C(=S)N(c3ccc(C#N)c(C(F)(F)F)c3)C(=O)C2(C)C)cc1F + COc1c(OCCCN2CCOCC2)ccc2c3n(c(=NC(=O)c4cnc(N)nc4)nc12)CCN3",
    "viability, T/C": "116%"
  },
  {
    "COMPOUND": "CC(C)NCC(C(=O)N1CCN(c2ncnc3c2C(C)CC3O)CC1)c1ccc(Cl)cc1 (stereo not given) + COc1c(OCCCN2CCOCC2)ccc2c3n(c(=NC(=O)c4cnc(N)nc4)nc12)CCN3",
    "viability, T/C": "45.4%"
  },
  {
    "COMPOUND": "C[C@@H](NC(=O)c1ncnc(N)c1Cl)c1ncc(C(=O)Nc2cc(C(F)(F)F)c(Cl)cn2)s1 + CC(Nc1ccc2c(c1)OCCn1cc(N3C(=O)OCC3C(F)F)nc1-2)C(N)=O",
    "viability, T/C": "115%"
  }
]

---

Below is a list of entries, each paired with its recorded viability, T/C value.
# Tested on: 648629-189-R-J1-PDC spheroids with HUVEC/MSC, viability
# METHOD: Anticancer human tumor 648629-189-R-J1-PDC cell line growth inhibition [PI3K];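 also: spheroids exposed to agents for seven days before reading; percent of vehicle control luminescence where 100% = DMSO treated spheroids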
# DETAILS: second compound 0.0316 µM; first compound 0.00316 µM; stronger effect = lower value

[
  {
    "COMPOUND": "CC(C)n1nc(-c2ccc3oc(N)nc3c2)c2c(N)ncnc21 + CC(Nc1ccc2c(c1)OCCn1cc(N3C(=O)OCC3C(F)F)nc1-2)C(N)=O",
    "MEASUREMENT UNITS": "%",
    "viability, T/C": 98.3
  },
  {
    "COMPOUND": "CCN1CCN(Cc2ccc(Nc3ncc(F)c(-c4cc(F)c5nc(C)n(C(C)C)c5c4)n3)nc2)CC1 + COc1c(OCCCN2CCOCC2)ccc2c3n(c(=NC(=O)c4cnc(N)nc4)nc12)CCN3",
    "MEASUREMENT UNITS": "%",
    "viability, T/C": 84.9
  },
  {
    "COMPOUND": "Cn1ncnc1[C@H]1c2n[nH]c(=O)c3cc(F)cc(c23)N[C@@H]1c1ccc(F)cc1 + COc1c(OCCCN2CCOCC2)ccc2c3n(c(=NC(=O)c4cnc(N)nc4)nc12)CCN3",
    "MEASUREMENT UNITS": "%",
    "viability, T/C": 85.4
  },
  {
    "COMPOUND": "CC(C)n1nc(-c2ccc3oc(N)nc3c2)c2c(N)ncnc21 + Cc1nc(NC(=O)N2CCCC2C(N)=O)sc1-c1ccnc(C(C)(C)C(F)(F)F)c1",
    "MEASUREMENT UNITS": "%",
    "viability, T/C": 109
  },
  {
    "COMPOUND": "CC(=O)c1c(C)c2cnc(Nc3ccc(N4CCNCC4)cn3)nc2n(C2CCCC2)c1=O + Cc1nc(NC(=O)N2CCCC2C(N)=O)sc1-c1ccnc(C(C)(C)C(F)(F)F)c1",
    "MEASUREMENT UNITS": "%",
    "viability, T/C": 100
  },
  {
    "COMPOUND": "CC(C)n1nc(-c2ccc3oc(N)nc3c2)c2c(N)ncnc21 + CC(Nc1ncnc2nc[nH]c12)c1cc2cccc(Cl)c2c(=O)n1-c1ccccc1",
    "MEASUREMENT UNITS": "%",
    "viability, T/C": 87.9
  }
]
